target: KRas-G12D (Homo sapiens, UniProt P01116, G12D); construct: insert the HiBiT tag onto the N-terminus of one or more of the endogenous KRas alleles; host or cells: AsPC-1 HiBiT-KRasG12D knock-in clone (one tagged allele, two untagged KRasG12D alleles); experiment: HiBiT Degradation Assay (G12D), AsPC-1 HiBiT-KRasG12D cells, 24 hr; format: cell-based; conditions: AsPC-1 cells
Sequence (P01116 1-188 isoform P01116-2 G12D): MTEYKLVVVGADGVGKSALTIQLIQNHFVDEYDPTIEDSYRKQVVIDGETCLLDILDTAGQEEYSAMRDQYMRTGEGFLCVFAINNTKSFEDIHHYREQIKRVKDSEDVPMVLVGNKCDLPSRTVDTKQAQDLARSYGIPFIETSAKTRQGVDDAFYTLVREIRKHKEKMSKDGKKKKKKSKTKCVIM
QUANTITY: DC50

- MOLECULE: "CCc1cccc2cc(O)cc(-c3ncc4c(N5CC6CCC(C5)N6)nc(OCCN5CCC(C(C)(C)N6CCN(c7ccc8c(c7)C(=O)N(C7CCC(=O)NC7=O)C8=O)CC6)CC5)nc4c3F)c12 (centres unmarked)"
  VALUE: "0.25 to 1 µM"
- MOLECULE: "C#Cc1c(F)ccc2cc(O)cc(-c3ncc4c(N5CC6CCC(C5)N6)nc(CCCN5CCC(CC6CCN(CC7CCN(c8ccc9c(c8)n(C)c(=O)n9C8CCC(=O)NC8=O)CC7)CC6)CC5)nc4c3F)c12 (centres unmarked)"
  VALUE: "< 5.1 µM"
- MOLECULE: "C#Cc1c(F)ccc2cc(O)cc(-c3ncc4c(N5CC6CCC(C5)N6)nc(OCCN5CCC(CN6CCN(CC7CCN(c8ccc9c(c8F)CN(C8CCC(=O)NC8=O)C9=O)CC7)C(C)(C)C6)CC5)nc4c3F)c12 (centres unmarked)"
  VALUE: "< 5.1 µM"
- MOLECULE: "C#Cc1c(F)ccc2cc(O)cc(-c3ncc4c(N5CC6CCC(C5)N6)nc(OCCN5CCC(CN6CCN(CC7CCN(c8ccc9c(c8)CN(C8CCC(=O)NC8=O)C9=O)CC7)CC6)CC5)nc4c3F)c12 (centres unmarked)"
  VALUE: "< 5.1 µM"
- MOLECULE: "C#Cc1c(F)ccc2cc(O)cc(-c3ncc4c(N5CC6CCC(C5)N6)nc(OC[C@@H]5C[C@@H](OC6CCN(CC7CCN(c8cccc9c8CN(C8CCC(=O)NC8=O)C9=O)CC7)CC6)CN5C)nc4c3F)c12 (some centres unmarked)"
  VALUE: "< 5.1 µM"
